Data origin, for the record: ChEMBL document CHEMBL3430912

- experimentSummary: GSK_TCAKS: pIC50 HepG2 human cell line viability assay using luminiscence. […] Seeding density was checked to ensure that new mono-layers were not more than 50% confluent at the time of harvesting. Cell suspension was added to 500 mL of the same medium at a final density of 1.2 * 10^5 cells/mL. This cell suspension was dispensed (25 uL, 3000 cells per well) into 384-well clear-bottom plates using a Multidrop Combi dispenser. Prior to addition of the cell suspension, the screening compounds (250 nL) were pre-dispensed into the plates with an Echo liquid handler. Plates were incubated for 48 h at 37C, 5% CO2. After incubation, plates equilibrated at room temperature for 30 min before proceeding to develop the luminescent signal. The signal developer, CellTiter-Glo Reagent, was allowed to equilibrate at room temperature for 30 min and added to the plates (25uL per well) using a Multidrop Combi dispenser. Plates were left for 10 min at room temperature for stabilization and then read using a ViewLux.
- Type: toxicity, cell-based
measuredProperty: IC50 at 48 h

compound | observedResult
CCC(CC)C(=O)Nc1ccc(-c2nnc(-c3ccc(OC)cc3)o2)cc1 | > 100 µM
CCN(CC)c1ncc(C(=O)c2ccc([N+](=O)[O-])o2)s1 | 15.8 µM
CCn1nccc1CN(C)C(=O)C=Cc1ccc(Cl)cc1 | > 100 µM
COCc1cnc2c(c1SCc1c(F)cccc1Cl)c(=O)n(C)c(=O)n2C | > 100 µM
Cc1ccccc1OCC(=O)N1CCCN(c2cccnn2)CC1 | > 100 µM

Input line: So what does the record say about IC50 at 48 h for Cn1ccnc1-c1nc(NCc2ccccc2Cl)cc(C2CC2)n1 ?
Output line: 20 µM

Input line: Then what about the compound CC(C)(C)C(Cn1ccnc1)NC(=O)c1ccc2nc(C3CC3)oc2c1 (centres undefined) ?
Output line: > 100 µM
